This collection of values is drawn from paper PMC11602115.

- target_or_system: CYP 2C19 (Homo sapiens)
- Sequence (P33261 whole entry): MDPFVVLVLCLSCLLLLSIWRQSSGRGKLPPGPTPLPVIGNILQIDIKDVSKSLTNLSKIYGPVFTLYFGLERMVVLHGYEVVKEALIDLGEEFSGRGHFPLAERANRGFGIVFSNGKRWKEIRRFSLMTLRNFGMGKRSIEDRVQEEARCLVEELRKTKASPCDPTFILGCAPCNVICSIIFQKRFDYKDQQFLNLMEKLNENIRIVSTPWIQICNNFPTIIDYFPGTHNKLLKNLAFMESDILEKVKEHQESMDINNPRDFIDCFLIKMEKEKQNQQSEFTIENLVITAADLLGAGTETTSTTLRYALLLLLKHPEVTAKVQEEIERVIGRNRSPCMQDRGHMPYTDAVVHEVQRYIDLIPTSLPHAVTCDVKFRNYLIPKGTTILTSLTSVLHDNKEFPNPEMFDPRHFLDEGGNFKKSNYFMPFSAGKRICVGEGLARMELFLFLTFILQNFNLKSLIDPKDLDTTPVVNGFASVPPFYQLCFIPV
- test_name: Cytochrome P450 inhibition, CYP2C19
- Assay type: in vitro ADME
pIC50: −log10 of the molar value.
parameter: pIC50

1. O=C(O)COC[C@H]1CC[C@H](COC(=O)N(c2ccccc2)c2cccc(F)c2)CC1 | < 4.30
2. O=C(O)COC[C@H]1CC[C@H](COC(=O)N(c2ccccc2)c2ccc(Cl)cc2)CC1 | < 4.30

---

Reported values of Emax for individual entries
- target_or_system: IP (Homo sapiens)
- Sequence (P43119 whole entry): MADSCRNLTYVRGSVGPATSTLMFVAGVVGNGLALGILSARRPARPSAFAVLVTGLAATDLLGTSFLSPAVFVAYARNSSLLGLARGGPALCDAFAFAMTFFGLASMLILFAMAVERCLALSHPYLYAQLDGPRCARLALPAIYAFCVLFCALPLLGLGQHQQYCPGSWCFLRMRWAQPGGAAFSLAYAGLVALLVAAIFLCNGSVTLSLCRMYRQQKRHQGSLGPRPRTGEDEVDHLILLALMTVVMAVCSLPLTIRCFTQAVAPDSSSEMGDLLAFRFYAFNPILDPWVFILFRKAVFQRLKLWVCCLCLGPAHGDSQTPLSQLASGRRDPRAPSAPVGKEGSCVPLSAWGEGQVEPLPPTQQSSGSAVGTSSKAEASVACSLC
- test_name: HTRF cAMP assay, recombinant human IP receptor stably expressed in CHO-K1 cells
- Format: cell-based
- Set-up: expressed in transfected cells
- condition_description: CHO-K1; read-out: hIP % IA
parameter: Emax (%)

1) O=C(O)COC[C@H]1CC[C@H](COC(=O)N(c2ccccc2)c2cccc(F)c2)CC1 | 85
2) O=C(COC[C@H]1CC[C@H](COC(=O)N(c2ccc(O)cc2)c2ccc(Cl)cc2)CC1)NCCS(=O)(=O)O | 78
3) O=C(O)COC[C@H]1CC[C@@H](COC(=O)N(c2ccccc2)c2ccccc2)CC1 | 81
4) Cc1ccc(N(C(=O)OC[C@H]2CC[C@H](COCC(=O)O)CC2)c2ccccc2)cc1 | 81
5) COc1ccc(N(C(=O)OC[C@H]2CC[C@H](COCC(=O)O)CC2)c2cccc(F)c2)cc1 | 70
6) O=C(O)COC[C@H]1CC[C@H](COC(=O)N(c2ccc(F)cc2)c2ccc(F)cc2)CC1 | 65
7) CC(C)N(CCCCOCC(=O)NS(C)(=O)=O)c1cnc(-c2ccccc2)c(-c2ccccc2)n1 [compound 1, selexipag, reference compound] | 98
8) O=C(O)COC[C@H]1CC[C@H](COC(=O)N(c2ccccc2)c2ccccc2)CC1 | 77
9) COc1cccc(N(C(=O)OC[C@H]2CC[C@H](COCC(=O)O)CC2)c2ccccc2)c1 | 92
10) O=C(O)COC[C@H]1CC[C@H](COC(=O)N(c2ccc(F)cc2)c2cccc(F)c2)CC1 | 76
11) O=C(O)COC[C@H]1CC[C@H](COC(=O)N(c2ccccc2)c2ccc(Cl)c(F)c2)CC1 | 85
12) COc1ccc(N(C(=O)OC[C@H]2CC[C@@H](COCC(=O)O)CC2)c2ccccc2)cc1 | 16
13) O=C(O)COC[C@H]1CC[C@H](COC(=O)N(c2ccc(O)cc2)c2ccc(Cl)cc2)CC1 | 93
14) O=C(O)COC[C@H]1CC[C@@H](COC(=O)N(c2ccccc2)c2cccc(F)c2)CC1 | 79
15) O=C(COC[C@H]1CC[C@H](COC(=O)N(c2ccccc2)c2ccc(Cl)cc2)CC1)NCCS(=O)(=O)O | 76
16) O=C(O)COC[C@H]1CC[C@H](COC(=O)N(c2ccccc2)c2ccc(F)c(F)c2)CC1 | 88
17) O=C(O)COC[C@H]1CC[C@H](COC(=O)N(c2ccc(Cl)cc2)c2cccc(F)c2)CC1 | 70
18) O=C(O)COC[C@H]1CC[C@H](COC(=O)N(c2ccccc2)c2cccc(Cl)c2)CC1 | 80
19) O=C(O)COC[C@H]1CC[C@H](COC(=O)N(c2ccccc2)c2ccc(F)c(Cl)c2)CC1 | 79
20) O=C(O)COC[C@H]1CC[C@H](COC(=O)N(c2ccccc2)c2ccc(F)cc2)CC1 | 89
21) O=C(O)COC[C@H]1CC[C@H](COC(=O)N(c2cccc(F)c2)c2ccc(Cl)c(F)c2)CC1 | 75
22) COc1ccc(N(C(=O)OC[C@H]2CC[C@H](COCC(=O)O)CC2)c2ccccc2)cc1 | 83

---

- target_or_system: EP2 (Homo sapiens, UniProt P43116)
- Sequence (P43116 whole entry): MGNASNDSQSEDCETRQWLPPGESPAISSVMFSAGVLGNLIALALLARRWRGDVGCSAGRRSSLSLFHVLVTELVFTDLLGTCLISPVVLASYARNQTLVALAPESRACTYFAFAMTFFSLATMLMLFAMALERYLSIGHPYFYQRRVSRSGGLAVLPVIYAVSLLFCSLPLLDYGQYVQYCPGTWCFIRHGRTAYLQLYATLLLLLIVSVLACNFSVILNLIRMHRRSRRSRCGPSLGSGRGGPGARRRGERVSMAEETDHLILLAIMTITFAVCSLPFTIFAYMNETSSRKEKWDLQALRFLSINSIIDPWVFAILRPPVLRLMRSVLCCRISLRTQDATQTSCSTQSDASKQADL
Known Ki of a selection of compounds
parameter: Ki (nM)

1. O=C(O)COC[C@H]1CC[C@H](COC(=O)N(c2ccccc2)c2cccc(F)c2)CC1 | 570
2. O=C(O)COC[C@H]1CC[C@H](COC(=O)N(c2ccccc2)c2ccc(Cl)cc2)CC1 | 610

---

Listed compounds paired with reported DP1 % I.A
- target_or_system: human DP1 receptor (Homo sapiens, UniProt Q13258)
- Construct: expressed in transfected cells
- Sequence (Q13258 whole entry): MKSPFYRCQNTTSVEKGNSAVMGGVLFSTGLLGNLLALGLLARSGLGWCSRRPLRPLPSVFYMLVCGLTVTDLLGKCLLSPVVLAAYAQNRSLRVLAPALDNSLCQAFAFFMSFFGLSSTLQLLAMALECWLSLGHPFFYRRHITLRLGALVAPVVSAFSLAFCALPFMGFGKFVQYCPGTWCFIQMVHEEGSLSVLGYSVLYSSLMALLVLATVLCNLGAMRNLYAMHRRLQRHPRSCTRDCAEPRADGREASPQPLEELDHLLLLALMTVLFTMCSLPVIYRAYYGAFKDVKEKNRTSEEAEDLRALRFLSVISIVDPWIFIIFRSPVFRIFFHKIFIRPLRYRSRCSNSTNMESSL
- test_name: HTRF cAMP assay, recombinant human DP1 receptor in CHO-K1 cells
- Assay type: cell-based
- condition_description: cAMP HTRF agonist assay (Gs), Table Sup2
parameter: DP1 % I.A

1) O=C(O)CCCCCCC1C(=O)NC(=O)N1CCC(O)C1CCCCC1 (stereo not shown) [BW245C] | 98%
2) O=C(O)COC[C@H]1CC[C@H](COC(=O)N(c2ccccc2)c2ccc(Cl)cc2)CC1 [5c] | 52%
3) CC(C)N(CCCCOCC(=O)O)c1cnc(-c2ccccc2)c(-c2ccccc2)n1 [compound 2, MRE269] | 80%
4) CC#CCC(C)[C@H](O)/C=C/[C@@H]1[C@H]2C/C(=C/CCCC(=O)O)C[C@H]2C[C@H]1O (stereo partly shown) [iloprost] | 42%

---

- target_or_system: EP1 (Homo sapiens, UniProt P34995)
- test_name: cAMP HTRF agonist assay, EP1
pEC50: −log10 of the molar value.
Reported pEC50 values for the following molecules.
parameter: pEC50

1. CC#CCC(C)[C@H](O)/C=C/[C@@H]1[C@H]2C/C(=C/CCCC(=O)O)C[C@H]2C[C@H]1O (stereo partly shown) [iloprost] | 7.33
2. CCCCC[C@H](O)/C=C/[C@H]1[C@H](O)CC(=O)[C@@H]1C/C=C\CCCC(=O)O [PGE2] | 7.29

---

- target_or_system: UniProt:P34995
- Sequence (P34995 1-402): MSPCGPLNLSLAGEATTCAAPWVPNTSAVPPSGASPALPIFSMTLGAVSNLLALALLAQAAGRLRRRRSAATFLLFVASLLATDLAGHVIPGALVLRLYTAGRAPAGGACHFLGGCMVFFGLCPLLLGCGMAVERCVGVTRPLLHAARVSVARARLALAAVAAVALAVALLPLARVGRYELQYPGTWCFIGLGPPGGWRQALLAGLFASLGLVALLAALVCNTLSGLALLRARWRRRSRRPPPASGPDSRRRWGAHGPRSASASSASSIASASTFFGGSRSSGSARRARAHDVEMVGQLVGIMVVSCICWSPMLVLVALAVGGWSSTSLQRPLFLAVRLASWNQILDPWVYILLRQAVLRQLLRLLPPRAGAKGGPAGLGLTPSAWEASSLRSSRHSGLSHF
parameter: Ki (µM)

1) O=C(O)COC[C@H]1CC[C@H](COC(=O)N(c2ccccc2)c2ccc(Cl)cc2)CC1 [5c] | 9.6

---

- test_name: Dog PK (iv and oral)
- Assay type: in vivo, Beagle dogs
- condition_description: beagle, plasma, oral, 0.2 mg/kg, read-out: elimination half-life in dog (converted)
parameter: half-life (min)

1) O=C(O)COC[C@H]1CC[C@H](COC(=O)N(c2ccccc2)c2ccc(Cl)cc2)CC1 [5c] | 600

---

- target_or_system: human DP1 receptor (Homo sapiens, UniProt Q13258)
- Construct: expressed in transfected cells
- test_name: HTRF cAMP assay, recombinant human DP1 receptor in CHO-K1 cells
- Assay type: cell-based
- condition_description: cAMP HTRF agonist assay (Gs), Table Sup2; read-out: DP1 EC50
pEC50: −log10 of the molar value.
Here, each record is paired with measured pEC50 data.
parameter: pEC50

1. O=C(O)CCCCCCC1C(=O)NC(=O)N1CCC(O)C1CCCCC1 (stereo not drawn) [BW245C] | 9.10
2. CCCCC[C@H](O)/C=C/[C@H]1[C@H](O)CC(=O)[C@@H]1C/C=C\CCCC(=O)O | 6.28
3. CCCCC[C@H](O)/C=C/[C@H]1C(=O)C[C@H](O)[C@@H]1C/C=C\CCCC(=O)O | 8.89

---

Listing of recorded pIC50 by entry.
- target_or_system: CYP 2C8 (Homo sapiens, UniProt P10632)
- Sequence (P10632 1-490): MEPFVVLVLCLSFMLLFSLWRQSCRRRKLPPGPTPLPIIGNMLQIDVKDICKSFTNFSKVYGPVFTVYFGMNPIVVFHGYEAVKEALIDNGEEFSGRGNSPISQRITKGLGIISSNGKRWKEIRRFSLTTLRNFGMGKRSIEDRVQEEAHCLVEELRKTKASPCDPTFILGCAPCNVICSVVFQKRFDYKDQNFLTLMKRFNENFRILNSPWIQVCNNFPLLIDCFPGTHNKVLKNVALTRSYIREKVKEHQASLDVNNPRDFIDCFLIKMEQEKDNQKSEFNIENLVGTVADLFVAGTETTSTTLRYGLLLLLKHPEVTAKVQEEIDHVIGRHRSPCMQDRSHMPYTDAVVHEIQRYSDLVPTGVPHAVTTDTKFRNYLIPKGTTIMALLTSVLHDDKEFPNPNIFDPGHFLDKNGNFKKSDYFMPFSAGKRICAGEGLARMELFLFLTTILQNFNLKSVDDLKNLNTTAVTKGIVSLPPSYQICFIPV
- test_name: Cytochrome P450 inhibition, CYP2C8
- Type: in vitro ADME
pIC50: −log10 of the molar value.
parameter: pIC50

1) O=C(O)COC[C@H]1CC[C@H](COC(=O)N(c2ccccc2)c2cccc(F)c2)CC1 [5g] | < 4.30
2) O=C(O)COC[C@H]1CC[C@H](COC(=O)N(c2ccccc2)c2ccc(Cl)cc2)CC1 [5c] | < 4.30
